assay: AUC(0 to infinity) in Sprague-Dawley rat at 5 mg/kg, po and measured upto 24 hrs by LC-MS/MS analysis; type: ADME, organism-based; design: time < 24 hrs, dose 5 mg/kg, route po; details: in vivo
MEASURED_PARAMETER: AUC(0-inf)
Write the figure, then the unit, nothing else.

CCc1oc2ccccc2c1C(=O)c1cc(Br)c(O)c(Br)c1 11100 ng·h/mL

Consider the record given below.
For O=C(c1cc(Cl)c(O)c(Cl)c1)n1ccc2cccnc21 the compound record lists AUC(0-inf) as 35300 ng·h/mL

----------
Below, each entry is listed alongside its reported MRT inf.
assay: MRT (0 to infinity) in Sprague-Dawley rat at 5 mg/kg, po and measured upto 24 hrs by LC-MS/MS analysis; assay type: ADME, organism-based; details: in vivo
Reply with just the number (in h).

COMPOUND	MEASURED
CCc1oc2ccccc2c1C(=O)c1cc(Br)c(O)c(Br)c1 [BENZBROMARONE]	3.48

Entry under test: O=C(c1cc(Cl)c(O)c(Cl)c1)n1ccc2cccnc21 . Its MRT inf was 7.27

----------
Listed below: bioavailability values for each entry.
assay: Oral bioavailability in Sprague-Dawley rat at 5 mg/kg and measured upto 24 hrs by LCMS analysis; format: ADME, organism-based; conditions: in vivo
All answers are understood in %, so give the number only.

O=C(c1cc(Cl)c(O)c(Cl)c1)n1ccc2cccnc21 55.3

Item: CCc1oc2ccccc2c1C(=O)c1cc(Br)c(O)c(Br)c1 | bioavailability: 36.1

----------
test: MRT (0 to infinity) in Sprague-Dawley rat at 5 mg/kg, iv and measured upto 24 hrs by LC-MS/MS analysis; type: ADME, organism-based; conditions: in vivo
MEASURED_PARAMETER: MRT inf
// unit must come after the numeric part

O=C(c1cc(Cl)c(O)c(Cl)c1)n1ccc2cccnc21 9.85 h

Next compound, please.
Kindly note the recorded MRT inf for CCc1oc2ccccc2c1C(=O)c1cc(Br)c(O)c(Br)c1 , which is 3.75 h

----------
target: Solute carrier family 22 member 6 (Homo sapiens, UniProt Q4U2R8); test: Inhibition of OAT1 (unknown origin) transfected in HEK293 cells assessed as inhibition of 6-CFL uptake preincubated for 30 mins followed by 6-CFL addition and measured for 15 mins by fluorescence based microplate reader analysis
Sequence (Q4U2R8 whole entry): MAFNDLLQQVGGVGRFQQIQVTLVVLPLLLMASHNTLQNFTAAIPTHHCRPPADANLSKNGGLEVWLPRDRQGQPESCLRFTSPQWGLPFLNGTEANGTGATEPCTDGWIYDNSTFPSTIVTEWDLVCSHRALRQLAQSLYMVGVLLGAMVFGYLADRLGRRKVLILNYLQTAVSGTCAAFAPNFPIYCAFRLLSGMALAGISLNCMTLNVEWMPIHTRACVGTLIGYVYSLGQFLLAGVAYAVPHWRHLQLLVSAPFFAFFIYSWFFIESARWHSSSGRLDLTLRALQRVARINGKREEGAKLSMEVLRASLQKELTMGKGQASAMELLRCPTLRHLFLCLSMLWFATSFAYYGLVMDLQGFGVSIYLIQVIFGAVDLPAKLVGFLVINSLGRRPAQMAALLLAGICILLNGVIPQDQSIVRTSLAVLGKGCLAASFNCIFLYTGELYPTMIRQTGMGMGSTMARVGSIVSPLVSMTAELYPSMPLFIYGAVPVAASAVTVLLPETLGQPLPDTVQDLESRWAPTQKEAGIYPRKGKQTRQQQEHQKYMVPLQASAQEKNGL
MEASURED_PARAMETER: IC50 (µM)
Answer with a number only, understood to be in µM.

O=C(c1cc(Cl)c(O)c(Cl)c1)n1ccc2cccnc21 10.2

Field: next compound
// CCc1oc2ccccc2c1C(=O)c1cc(Br)c(O)c(Br)c1 : IC50 value = 2.12

----------
Target: Solute carrier family 22 member 12 (Homo sapiens, UniProt Q96S37)
Sequence (Q96S37 whole entry): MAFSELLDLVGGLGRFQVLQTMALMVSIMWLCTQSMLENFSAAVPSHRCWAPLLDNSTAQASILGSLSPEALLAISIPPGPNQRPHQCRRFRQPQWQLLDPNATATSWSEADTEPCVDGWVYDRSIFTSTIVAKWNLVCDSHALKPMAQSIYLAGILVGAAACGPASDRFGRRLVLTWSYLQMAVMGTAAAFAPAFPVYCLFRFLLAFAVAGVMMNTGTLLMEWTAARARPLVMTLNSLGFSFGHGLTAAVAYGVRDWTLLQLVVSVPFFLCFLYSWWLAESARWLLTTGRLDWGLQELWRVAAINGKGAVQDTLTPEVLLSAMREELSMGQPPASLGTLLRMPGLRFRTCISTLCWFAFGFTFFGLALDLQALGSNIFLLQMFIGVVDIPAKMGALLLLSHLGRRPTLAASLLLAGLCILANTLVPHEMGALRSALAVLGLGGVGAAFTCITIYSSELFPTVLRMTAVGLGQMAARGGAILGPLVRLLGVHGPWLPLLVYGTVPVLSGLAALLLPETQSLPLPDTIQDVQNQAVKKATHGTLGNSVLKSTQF
Experiment: Inhibition of human URAT1 stably overexpressing in human HEK293 cells assessed as inhibition of 14C-uric acid uptake preincubated for 30 mins followed by substrate addition and measured after 15 mins using 14C-uric acid as substrate by liquid scintillation counting analysis
Assay type: cell-based
MEASURED_PARAMETER: IC50 (nM)
# number only, unit nM dropped from output

MOLECULE	MEASURED
O=C(c1ccc(O)c(Cl)c1)n1ccc2cccnc21	1580
O=C(c1cc(Cl)c(O)c(Cl)c1)N1CCc2cc(Br)ccc21	2360
O=C(c1cc(Cl)c(O)c(Cl)c1)n1cc(Br)c2cccnc21	1550

Then this molecule:
Recorded result, O=C(c1ccc(O)c(Br)c1)n1ccc2cccnc21 , IC50: 3800

----------
molecular target: Solute carrier family 22 member 12 (Homo sapiens); assay: Inhibition of human URAT1 stably overexpressing in human HEK293 cells assessed as inhibition of 14C-uric acid uptake preincubated for 30 mins followed by substrate addition and measured after 15 mins using 14C-uric acid as substrate by liquid scintillation counting analysis
Flag rule - IC50 less than 2 µM flags 1.0; the remaining entries get 0.0.

MOLECULE	LABEL_VALUE
Cc1cc(C(=O)n2ccc3cccnc32)ccc1O	0.0

Prompt: Say whether its IC50 is strictly beneath 2 µM. Entry: O=C(c1ccc(O)c(F)c1)n1ccc2cccnc21
Response: 0.0

Prompt: Below 2 µM on IC50? Entry CC(C)(Sc1ccncc1-c1ccc(C#N)c2ccccc12)C(=O)O
Response: 1.0

Prompt: Strictly below 2 µM in IC50? COc1cc(C(=O)n2ccc3cccnc32)cc(OC)c1O
Response: 0.0

Prompt: Is it true that IC50 reported for Cc1cc(C(=O)n2ccc3cccnc32)cc(C)c1O is less than 2 µM?
Response: 0.0

Prompt: Strictly below 2 µM: is that where IC50 of CC1Cc2ccccc2N1C(=O)c1cc(Cl)c(O)c(Cl)c1 (stereo not drawn) sits?
Response: 1.0

Prompt: Dear colleague, could you confirm whether IC50 of O=C(c1ccc(O)c([N+](=O)[O-])c1)n1ccc2cccnc21 falls below 2 µM? Thanks.
Response: 0.0

Prompt: # TODO verify IC50 < 2 µM strictly for this molecule: O=C(c1ccc(O)cc1)n1ccc2cccnc21
Response: 1.0
